Biological target: Human PPARα (Homo sapiens)
Construct: host or cells: proprietary non-human mammalian cells
Assay: Human PPARα Reporter Assay (luciferase)
Type: cell-based
Settings: human PPARα reporter cells, overnight incubation, antagonism; read-out: Luciferase IC50
Provide the reported log10 of IC50 of each item.
Please be aware that the numbers have been log10-transformed from IC50 in µM.

In plain terms, `CCn1c(CCCc2ccc(-c3cccc(NS(=O)(=O)c4ccc(C)cc4)c3)cc2)nn(Cc2ccc(C(C)(C)C)cc2)c1=O` has a documented log10 of IC50 of -0.33

For record `CCn1c(CCCc2ccc(-c3cccc(NC(=O)NCc4ccccc4)n3)cc2)nn(Cc2ccc(C(C)(C)C)cc2)c1=O` the listed log10 of IC50 is -0.44

According to the records, this molecule `CCn1c(CCCc2ccc(-c3ccc(C4(F)COC4)nc3)cc2)nn(Cc2ccc(C(C)(C)C)cc2)c1=O` displays log10 of IC50 of -1.04

Briefly, log10 of IC50 measured for `CCn1c(CCCc2ccc(-c3ccc(NC(=O)NS(=O)(=O)c4ccccc4)cn3)cc2)nn(Cc2ccc(C(C)(C)C)cc2)c1=O` : -0.37

The recorded log10 of IC50 for `CCn1c(CCCc2ccc(-c3ccc(OC(C)C)c(CC(=O)O)c3)cc2)nn(Cc2ccc(C(C)(C)C)cc2)c1=O` is -1.89

// log10 of IC50 lookup, molecule = `CC(C)(C)c1ccc(Cn2nc(CCCc3ccc(-c4ccc(C5(O)COC5)cc4)cc3)[nH]c2=O)cc1` , result: -0.34

molecule `CCCn1c(CCCc2ccc(-c3ccc(OC)c(CC(=O)O)c3)cc2)nn(Cc2ccc(C(C)(C)C)cc2)c1=O` , log10 of IC50 observed: -1.66

###

I'd be grateful if you could share measured IC50 for these entries.
Biological target: Human PPARα (Homo sapiens, UniProt Q07869)
Construct: host or cells: proprietary non-human mammalian cells
Sequence (Q07869 whole entry): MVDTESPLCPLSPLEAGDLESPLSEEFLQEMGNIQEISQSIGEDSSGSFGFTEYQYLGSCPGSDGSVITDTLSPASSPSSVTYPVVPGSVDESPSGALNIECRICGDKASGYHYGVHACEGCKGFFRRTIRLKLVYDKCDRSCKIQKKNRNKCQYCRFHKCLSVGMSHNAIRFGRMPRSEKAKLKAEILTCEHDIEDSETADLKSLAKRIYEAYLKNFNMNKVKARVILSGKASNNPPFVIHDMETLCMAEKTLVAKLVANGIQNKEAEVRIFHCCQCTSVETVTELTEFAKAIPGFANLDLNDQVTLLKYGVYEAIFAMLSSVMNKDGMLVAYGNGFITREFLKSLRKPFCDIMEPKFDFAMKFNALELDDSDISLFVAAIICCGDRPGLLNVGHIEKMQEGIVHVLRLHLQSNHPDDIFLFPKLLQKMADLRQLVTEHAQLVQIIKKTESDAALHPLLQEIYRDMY
Assay: Human PPARα Reporter Assay (luciferase)
Format: cell-based
Conditions: human PPARα reporter cells, overnight incubation, antagonism; read-out: Luciferase IC50

Lab book: IC50 of C=CCn1c(CCCc2ccc(-c3ccc(OC)c(CC(=O)O)c3)cc2)nn(Cc2ccc(C(C)(C)C)cc2)c1=O [Example 76] noted as 261 nM

Sure, the documented IC50 for CCOc1ccc(-c2ccc(CCCc3nn(Cc4ccc(C(C)(C)C)cc4)c(=O)n3CC)cc2)nc1NS(=O)(=O)c1ccccc1 [Example 62] is 5 nM

For this molecule ( CCn1c(CCCc2ccc(-c3ccc(CC(=O)O)c(OC)c3)cc2)nn(Cc2ccc(C(C)(C)C)cc2)c1=O [Example 199] ), measured IC50 is 292 nM

So for CCn1c(CCCc2ccc(-c3csc(C4(O)COC4)n3)cc2)nn(Cc2ccc(C(C)(C)C)cc2)c1=O [Example 203] , the logged IC50 turned out to be 873 nM

// IC50 lookup, molecule = CCn1c(CC2CC2c2ccc(-c3cccc(CC(=O)O)c3)cc2)nn(Cc2ccc(C(C)(C)C)cc2)c1=O (centres unmarked) [Example 30] , result: 1280 nM

// recorded IC50 for CCn1c(CCCc2ccc(-c3cccc(-c4nnn[nH]4)c3)cc2)nn(Cc2ccc(C(C)(C)C)cc2)c1=O [Example 29] : 1190 nM

The reported IC50 of the molecule CCC(=O)NS(=O)(=O)Cc1cccc(-c2ccc(CCCc3nn(Cc4ccc(C(C)(C)C)cc4)c(=O)n3CC)cc2)c1 [Example 116] was 987 nM

Given item CCn1c(CCC(F)(F)c2ccc(-c3ccc(OC)c(CC(=O)O)c3)cc2)nn(Cc2ccc(C(C)(C)C)cc2)c1=O [Example 163] , the value recorded as its IC50 is 15 nM

Short answer for CCn1c(CCCc2ccc(-c3ccc(NS(=O)(=O)c4ccccc4)cn3)cc2)nn(Cc2ccc(C(C)(C)C)cc2)c1=O [Example 10] : IC50 was 67 nM

Item: CCn1c(CCCc2ccc(-c3ccc(OC)c(CC(=O)O)c3)c(O)c2)nn(Cc2ccc(C(C)(C)C)cc2)c1=O [Example 145] | IC50: 692 nM

Briefly, IC50 measured for CCn1c(CCCc2ccc(-c3ccc(C4(C(=O)O)CC4)cc3)cc2)nn(Cc2ccc(C(C)(C)C)cc2)c1=O [Example 137] : 676 nM

Short answer for CCn1c(CCCc2ccc(-c3ccc(OC)c(CC(=O)O)c3)cn2)nn(Cc2ccc(C(C)(C)C)cc2)c1=O [Example 198] : IC50 was 623 nM

Just so you know, measured IC50 for CCn1c(CCCc2ccc(-c3ccc(OC)c(CC(=O)NS(C)(=O)=O)c3)cc2)nn(Cc2ccc(C(C)(C)C)cc2)c1=O [Example 135] came out at 192 nM

molecule CCn1c(CCCc2ccc(-c3ccc(C)c(C(=O)O)n3)cc2)nn(Cc2ccc(C(C)(C)C)cc2)c1=O [Example 165] , IC50 observed: 202 nM
